measurementProtocol: Area under curve (AUC) was determined after intravenous administration of compound as Bis(N-methyl-D-glucamine) salt in dog at a dose of 2 mg/Kg
Assay type: ADME, organism-based, Canis lupus familiaris
conditionSummary: in vivo
valueKind: AUC
Please append the unit to your numeric answer.

Any idea what AUC was measured for C[C@@H](O[C@H]1OCCN(Cc2n[nH]c(=O)[nH]2)[C@H]1c1ccc(F)cc1)c1cc(C(F)(F)F)cc(C(F)(F)F)c1 [APREPITANT] ?
8900 ng·h/mL

* * *

measurementProtocol: Area under curve (AUC) was determined after intravenous administration of compound as Bis(N-methyl-D-glucamine) salt in dog at a dose of 0.5 mg/Kg
Type: ADME, organism-based, Canis lupus familiaris
conditionSummary: in vivo
valueKind: AUC (ng·h/mL)
Express it in ng·h/mL; write the number only.

Fill in: AUC of C[C@@H](O[C@H]1OCCN(Cc2n[nH]c(=O)[nH]2)[C@H]1c1ccc(F)cc1)c1cc(C(F)(F)F)cc(C(F)(F)F)c1 [APREPITANT] is ___
1100
